System: Wolbachia pipientis
assay method text: Anti-Wolbachia Cell-Based Screen
Assay type: functional
Design: scale not given: in the data most compounds retested in dose-response had high values
settings: 5 µM
In all, about 48,000 compounds went through this assay and about 13,000 (27%) showed an effect of 50% or more. The list shows a part of the results.
value type: Percent Effect (%)
Number in %, nothing else.

Worked cases, answers included:
[[record]]
molecule = "CN(Cc1ccco1)C(=O)Nc1ccc(=O)n(C)c1"
measured_on = "Wolbachia pipientis"
result_value = 2.905

[[record]]
molecule = "Cn1ccc(C(=O)N2CCC3(CC2)CC(Nc2cnccn2)CO3)n1 (centres undefined)"
measured_on = "Wolbachia pipientis"
result_value = 103.2


Task: Return reported Percent Effect; argument: `Cc1ccc(S(=O)(=O)NC[C@H]2OC[C@@H](NCc3ccccn3)[C@@H]2O)cc1`
Output: 0.9418

Task: Return reported Percent Effect; argument: CCC(=O)c1ccc(OCC(=O)NCC2CCCO2)cc1 (centres undefined)
Output: 8.672

Task: Return reported Percent Effect; argument: `COc1ccc(OCc2nc(C(=O)NCCN3CCOCC3)co2)cc1`
Output: -20.12

Task: Return reported Percent Effect; argument: `CCCn1nnnc1CSc1nccn1CC`
Output: -2.029

Task: Return reported Percent Effect; argument: COc1ccc(-c2n[nH]c(C)c2CC(=O)NCC2CCCO2)cc1 (centres undefined)
Output: 140.4

Task: Return reported Percent Effect; argument: `O=S(=O)(NCCc1ccccc1F)N1CCOCC1`
Output: 104.5

Task: Return reported Percent Effect; argument: O=C(Cc1ccccc1)N1CCC2(CC1)CC(Nc1cnccn1)CO2 (centres undefined)
Output: 117.3

Task: Return reported Percent Effect; argument: `CC(C)(C)Cc1noc2ncc(C(=O)N3CCC3)cc12`
Output: -0.07347

====

Reported Percent Effect values are given for each entry in this list.
Tested on: Wolbachia pipientis
assay method text: Anti-Wolbachia Cell-Based Screen
Format: functional
Parameters: scale not given: in the data most compounds retested in dose-response had high values
settings: 5 µM
Out of some 48,000 compounds screened, about 13,000 (27%) showed an effect of 50% or more. This is one part of the list.
Number in %, nothing else.

[[record]]
compound = "O=C(c1ncncc1Cl)N1CCN(c2ccc(Cl)cc2)CC1"
measured_on = "Wolbachia pipientis"
result_value = -23.14

[[record]]
compound = "CCNC(=O)NC[C@@H]1C=C(C)[C@H](CC(=O)NCCN(C)C)C[C@H]1C(C)C"
measured_on = "Wolbachia pipientis"
result_value = -8.573

[[record]]
compound = "Cc1nc(C)c(CN2CCOC(Cc3ccccc3Cl)C2)nc1C (centres undefined)"
measured_on = "Wolbachia pipientis"
result_value = -25.93

[[record]]
compound = "Cn1cnc2c1CCN(CCCOc1ccc(S(C)(=O)=O)cc1)C2"
measured_on = "Wolbachia pipientis"
result_value = -0.429

[[record]]
compound = "CSc1cccc(CN(C)C(=O)CN2CCN(c3ncccn3)CC2)c1"
measured_on = "Wolbachia pipientis"
result_value = -6.038


Task: Return reported Percent Effect; argument: `Cc1ccc(C(=O)N2C[C@@H]3CN(c4ncccn4)C[C@@H]3C2)cn1`
Output: 1.13

Task: Return reported Percent Effect; argument: NC(=O)NC(CC(=O)NCCc1cccc(F)c1)c1cccs1 (centres undefined)
Output: 2.392

Task: Return reported Percent Effect; argument: `Cc1nc2c(c(NCc3cnc4c(c3)CCC4)n1)CNC2`
Output: 90.56

Task: Return reported Percent Effect; argument: N#Cc1cccc(S(=O)(=O)NC2CCN(CC(F)(F)F)C2)c1 (centres undefined)
Output: 11.74

Task: Return reported Percent Effect; argument: `CCC(CC)c1cc(C(=O)N2CCN(CC(N)=O)CC2)on1`
Output: 14.59

Task: Return reported Percent Effect; argument: `CCc1cnc(C)nc1NCc1cnc2c(c1)CCC2`
Output: 83.93

Task: Return reported Percent Effect; argument: `CCNC(=O)NCc1cnn(-c2ccc(F)cc2F)c1`
Output: -2.386

Task: Return reported Percent Effect; argument: CCN(C(=O)NCCc1ccc(C)cc1C)C(C)CS(C)(=O)=O (centres undefined)
Output: -11.16

Task: Return reported Percent Effect; argument: CCC(NC(=O)Nc1cc(F)c(OC)c(F)c1)c1noc(C)n1 (centres undefined)
Output: -7.836

====

Test system: Wolbachia pipientis
assay method text: Anti-Wolbachia Cell-Based Screen
Type: functional
Design: scale not given: in the data most compounds retested in dose-response had high values
settings: 5 µM
Hit rate of the full screen: of about 48,000 compounds, about 13,000 (27%) showed an effect of 50% or more. This is one part of the list.
value type: Percent Effect (%)
Number in %, nothing else.

[[record]]
molecule = "CN(C)CCNC(=O)c1nc2c(o1)CN(c1ncccn1)C2"
measured_on = "Wolbachia pipientis"
output_unit = "%"
result_value = -6.07


Task: Return reported Percent Effect; argument: `COc1ccc(C(=O)N2C[C@@H](C(=O)O)[C@H](c3ccccc3)C2)c(C)c1`
Output: -5.118

Task: Return reported Percent Effect; argument: `COCCNC(=O)NCc1cc(-c2cccs2)n(C2CCCC2)n1`
Output: 108.7

Task: Return reported Percent Effect; argument: `O=C(NCc1cccnc1)c1ccc2nccn2c1`
Output: 107.5

Task: Return reported Percent Effect; argument: Cc1ccc(CNC(c2cccc(F)c2)c2nccn2C)o1.Cl (stereo unspecified)
Output: -1.716

Task: Return reported Percent Effect; argument: `Oc1ccccc1N1CCN(c2ncnc3sc4c(c23)CCNC4)CC1`
Output: -35.6

Task: Return reported Percent Effect; argument: O=C(NC1CCCN(c2ccccc2Cl)C1)c1ccc(=O)[nH]n1 (stereo unspecified)
Output: 90.33

Task: Return reported Percent Effect; argument: CCS(=O)(=O)N1Cc2cncn2CC(C(=O)NCC2CC2)C1 (stereo unspecified)
Output: 119.2

Task: Return reported Percent Effect; argument: `COCCNc1ncc(-c2cccc(F)c2)c(-c2nccn2C)n1`
Output: 111.1

Task: Return reported Percent Effect; argument: `Cc1nc(Cn2cnc3c(c(Br)nn3C)c2=O)cs1`
Output: -1.874

====

Tested on: Wolbachia pipientis
assay method text: Anti-Wolbachia Cell-Based Screen
Format: functional
Set-up: scale not given: in the data most compounds retested in dose-response had high values
settings: 5 µM
Hit rate of the full screen: of about 48,000 compounds, about 13,000 (27%) showed an effect of 50% or more. This is one part of the list.
value type: Percent Effect (%)
Number in %, nothing else.

[[record]]
compound = "CC(C)n1cc(C(=O)N2CCC(n3cc(C(C)(C)C)nn3)CC2)cn1"
output_unit = "%"
result_value = 5.915


Task: Return reported Percent Effect; argument: `CCCC(=O)N1CCN(c2cc(-n3cnc(C)c3C)nc(C)n2)CC1`
Output: -4.899

Task: Return reported Percent Effect; argument: O=C(NCC1CC1)C1CN(C(=O)c2cccnc2)CC12CCOCC2 (centres undefined)
Output: 0.4189

Task: Return reported Percent Effect; argument: `COc1cc(F)cc(CNC(=O)Nc2ccn(CC(F)F)n2)c1`
Output: -8.907

Task: Return reported Percent Effect; argument: `CCN(CC)c1ccc(CNS(=O)(=O)C2CCOCC2)cc1F`
Output: 0.7913

====

Test system: Wolbachia pipientis
assay method text: Anti-Wolbachia Cell-Based Screen
Format: functional
Design: scale not given: in the data most compounds retested in dose-response had high values
settings: 5 µM
The campaign covered roughly 48,000 compounds. About 13,000 (27%) showed an effect of 50% or more. The list shows a part of the results.
value type: Percent Effect (%)
Number in %, nothing else.

Worked cases, answers included:
[[record]]
compound = "COc1ccc(CNCc2c(C)nn(C)c2N2CCOCC2)cc1"
measured_on = "Wolbachia pipientis"
value_type = "Percent Effect"
result_value = 6.012

[[record]]
compound = "CCC(CNC(=O)c1cc(CC(C)C)nn1C)N(C)CC (stereo not given)"
measured_on = "Wolbachia pipientis"
value_type = "Percent Effect"
result_value = -16.5

[[record]]
compound = "CCn1nc(CC(C)C)cc1C(=O)NCc1c(C)cc(C)nc1OC"
measured_on = "Wolbachia pipientis"
value_type = "Percent Effect"
result_value = 140.7


Task: Return reported Percent Effect; argument: `Cn1cccc1C(=O)N1CCc2ncnc(N3CCOCC3)c2CC1`
Output: -2.151

Task: Return reported Percent Effect; argument: `CCn1nc(CC(C)C)cc1C(=O)NCC(F)(F)F`
Output: 127.5

Task: Return reported Percent Effect; argument: `Cc1nc(CNCc2c(C)nn(C)c2N2CCOCC2)cs1`
Output: -13.32

Task: Return reported Percent Effect; argument: `CCn1nc(CC(C)C)cc1C(=O)NCCn1cccc1`
Output: -13.46

Task: Return reported Percent Effect; argument: `Cc1nn(C)c(N2CCOCC2)c1CNCc1ccnc(N(C)C)c1`
Output: -0.1268

Task: Return reported Percent Effect; argument: `O=C(CSc1ccccc1)N1CCc2c(ncnc2N2CCOCC2)C1`
Output: 3.982

Task: Return reported Percent Effect; argument: `O=C(CSC1=NS(=O)(=O)c2cc(F)ccc2N1)c1ccccc1`
Output: 100.3

Task: Return reported Percent Effect; argument: `Cc1cc(CNCc2c(C)nn(C)c2N2CCOCC2)no1`
Output: -8.986

Task: Return reported Percent Effect; argument: `Cc1nn(C)c(N(C)C)c1CNCc1ccc(N(C)C)nc1`
Output: 0.9542
